# tgt: P. falciparum apicoplast DNA polymerase (Pf-apPOL) (Plasmodium falciparum)
# Sequence (Q8ILY1 entry or part of it): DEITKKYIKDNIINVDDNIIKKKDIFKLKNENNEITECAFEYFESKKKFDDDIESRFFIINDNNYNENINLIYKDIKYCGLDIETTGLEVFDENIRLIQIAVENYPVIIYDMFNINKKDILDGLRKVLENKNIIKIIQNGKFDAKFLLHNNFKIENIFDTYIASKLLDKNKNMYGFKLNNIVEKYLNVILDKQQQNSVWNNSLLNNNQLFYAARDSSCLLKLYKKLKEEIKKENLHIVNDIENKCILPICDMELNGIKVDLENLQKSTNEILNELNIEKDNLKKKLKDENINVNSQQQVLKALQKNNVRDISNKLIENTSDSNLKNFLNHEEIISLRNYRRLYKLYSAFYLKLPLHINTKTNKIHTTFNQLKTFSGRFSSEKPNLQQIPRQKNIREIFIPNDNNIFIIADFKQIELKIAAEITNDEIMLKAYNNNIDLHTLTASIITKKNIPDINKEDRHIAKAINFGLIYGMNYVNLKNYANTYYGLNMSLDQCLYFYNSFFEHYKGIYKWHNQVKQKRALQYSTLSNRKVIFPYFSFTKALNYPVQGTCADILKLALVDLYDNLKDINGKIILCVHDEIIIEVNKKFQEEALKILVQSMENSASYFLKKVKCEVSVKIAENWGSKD
# assay.summary: Fluorescence-based high-throughput DNA polymerase assay (molecular beacon), primary screen and dose-response;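 further: compound concentration given in µM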
# Assay type: biochemical
# study.conditions: DRC-2; 40'; concentration 20
reported.property: % inhibition Apol 40' (%)

O=C(Nc1cccc(Cl)c1)Nc1nnc(-c2ccncc2)s1
66
O=C(Cn1ccc2c(=O)[nH]ccc21)Nc1ccc(Cl)cc1 [Molecule 36, O=C(Cn1ccc2c1cc[nH]c2=O)Nc1ccc(cc1)Cl]
63
N#CC(=NNc1cc(C(F)(F)F)cc(C(F)(F)F)c1)C(=O)c1ccco1
59
O=c1cc(-c2ccccc2Cl)oc2c(NS(=O)(=O)c3cc(Cl)cc(Cl)c3O)ccc(O)c12
11

###

Quick list: % inhibition T4 130' 80 per entry.
# tgt: bacteriophage T4 DNA polymerase (Enterobacteria phage T4, UniProt P04415)
# Construct: made in house
# Sequence (P04415 1-898): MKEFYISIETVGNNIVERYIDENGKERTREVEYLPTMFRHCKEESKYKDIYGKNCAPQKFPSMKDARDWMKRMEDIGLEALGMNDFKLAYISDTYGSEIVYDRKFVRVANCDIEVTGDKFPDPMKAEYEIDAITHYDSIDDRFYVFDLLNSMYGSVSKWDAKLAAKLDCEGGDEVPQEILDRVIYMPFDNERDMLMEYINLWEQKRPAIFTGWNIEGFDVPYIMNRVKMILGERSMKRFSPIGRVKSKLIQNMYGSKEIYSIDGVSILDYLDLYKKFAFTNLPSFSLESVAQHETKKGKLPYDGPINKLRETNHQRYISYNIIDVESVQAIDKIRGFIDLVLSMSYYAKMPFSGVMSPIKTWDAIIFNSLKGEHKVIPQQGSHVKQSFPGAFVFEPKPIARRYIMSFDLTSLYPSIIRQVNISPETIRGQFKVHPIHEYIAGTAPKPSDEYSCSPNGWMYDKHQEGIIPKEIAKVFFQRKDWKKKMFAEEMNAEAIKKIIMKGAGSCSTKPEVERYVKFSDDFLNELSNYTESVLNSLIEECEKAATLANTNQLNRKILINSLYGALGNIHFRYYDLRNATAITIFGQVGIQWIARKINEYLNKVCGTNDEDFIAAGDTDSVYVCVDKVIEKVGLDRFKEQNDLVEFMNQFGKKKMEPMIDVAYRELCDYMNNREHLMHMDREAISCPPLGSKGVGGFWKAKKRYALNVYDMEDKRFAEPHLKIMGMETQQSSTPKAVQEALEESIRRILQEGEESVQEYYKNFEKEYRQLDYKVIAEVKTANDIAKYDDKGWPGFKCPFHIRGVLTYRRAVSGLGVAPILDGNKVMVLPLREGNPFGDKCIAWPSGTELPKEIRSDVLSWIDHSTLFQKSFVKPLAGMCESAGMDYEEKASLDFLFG
# assay.summary: Counter-screen against bacteriophage T4 DNA polymerase
# Format: biochemical
# study.conditions: DRC-1; read at 130'; concentration 80
reported.property: % inhibition T4 130' 80 (%)

COc1ccccc1CC(=O)N1CCc2c(nc3cc(-c4ccccc4Cl)[nH]n3c2=O)C1 [Molecule 49]
-11
Cn1nc(-c2nnc(-c3ccccc3F)o2)c2c1CCN(C(=O)c1ccccc1Cl)C2 [Molecule 34]
22
Cc1ccc(N2CCC(NC(=O)Cc3cccs3)C2=O)cc1C (stereo not shown) [Molecule 57, O=C(NC1CCN(C1=O)c1ccc(c(c1)C)C)Cc1cccs1]
19.4508
Cc1cccc(-c2noc(C(=O)NNC(=O)C(Cl)(Cl)Cl)n2)c1 [KU0266208]
3.008
Cc1nc(C)c2c(n1)N(CC1CCCCC1)C(=O)CC2 [KU0218606]
-8.474
Cn1nc(-c2nc(-c3ccccc3)no2)c2c1CCN(C(=O)Cc1cccs1)C2 [Molecule 58]
33
CCCc1ccc(Oc2coc3cc(OC)ccc3c2=O)cc1 [KU0193249]
-9.229
COc1ccc(/C=C/c2cc(C(=O)O)c3ccccc3n2)cc1 [Molecule 5, COc1ccc(cc1)/C=C/c1nc2ccccc2c(c1)C(=O)O]
6.199
C#CC(C=CC)OC(=O)c1ccccc1C(=O)O (stereo not shown) [Molecule 61, CC=CC(OC(=O)c1ccccc1C(=O)O)C#C]
12.4594
CC(=O)OCC1=C(C(=O)[O-])N2C(=O)[C@@H](NC(=O)Cc3cccs3)[C@H]2SC1.[Na+] [Molecule 73]
33.8147
CC(C)CC(C(=O)O)N1C(=O)C2C3C=CC(C2C1=O)C1C(=O)N(C(CC(C)C)C(=O)O)C(=O)C31 (stereo not shown) [KU0193449]
34.0378
N#Cc1c(O)nc(N2CCCCC2)nc1-c1ccc2c(c1)OCO2 [KU0083146]
26.2784
Cc1ccsc1Cn1c(C)ccc1C [Molecule 70, Cc1ccsc1Cn1c(C)ccc1C]
-25.7177
O=C(c1ccccc1)N1CCc2c(nc3cc(-c4ccccc4)[nH]n3c2=O)C1 [Molecule 30]
-9.233
Nc1cc(Oc2ccc(O)c(N)c2)ccc1O [KU0034728]
18.4293
CC(=O)Nc1cc(C(=O)c2cccs2)nn(-c2ccc(Cl)cc2)c1=O [KU0267905]
8.594
